# System: Mitogen-activated protein kinase 14 (Homo sapiens)
# Sequence (Q16539 whole entry): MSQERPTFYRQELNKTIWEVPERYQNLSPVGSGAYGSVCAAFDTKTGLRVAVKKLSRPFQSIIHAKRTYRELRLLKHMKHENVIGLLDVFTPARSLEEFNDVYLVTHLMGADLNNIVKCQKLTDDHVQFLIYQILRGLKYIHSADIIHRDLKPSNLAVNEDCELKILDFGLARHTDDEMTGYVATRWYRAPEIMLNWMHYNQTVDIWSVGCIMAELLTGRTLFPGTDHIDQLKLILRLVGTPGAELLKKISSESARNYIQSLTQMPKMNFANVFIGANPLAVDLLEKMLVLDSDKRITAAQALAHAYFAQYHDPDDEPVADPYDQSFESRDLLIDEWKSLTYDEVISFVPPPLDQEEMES
# Test Summary: Inhibition of MAPK14
Measured Metric: IC50 (nM)
Unit nM implied. Number only.

**Query** Report IC50 for CN1C[C@@H]2C[C@H]1CN2c1cc(F)c(-c2ccnc3c(-c4cccc5[nH]ncc45)c(-c4ccncc4)nn23)c(F)c1 please.
**Result** 145

----------
# System: Ephrin type-A receptor 1 (Homo sapiens, UniProt P21709)
# Sequence (P21709 whole entry): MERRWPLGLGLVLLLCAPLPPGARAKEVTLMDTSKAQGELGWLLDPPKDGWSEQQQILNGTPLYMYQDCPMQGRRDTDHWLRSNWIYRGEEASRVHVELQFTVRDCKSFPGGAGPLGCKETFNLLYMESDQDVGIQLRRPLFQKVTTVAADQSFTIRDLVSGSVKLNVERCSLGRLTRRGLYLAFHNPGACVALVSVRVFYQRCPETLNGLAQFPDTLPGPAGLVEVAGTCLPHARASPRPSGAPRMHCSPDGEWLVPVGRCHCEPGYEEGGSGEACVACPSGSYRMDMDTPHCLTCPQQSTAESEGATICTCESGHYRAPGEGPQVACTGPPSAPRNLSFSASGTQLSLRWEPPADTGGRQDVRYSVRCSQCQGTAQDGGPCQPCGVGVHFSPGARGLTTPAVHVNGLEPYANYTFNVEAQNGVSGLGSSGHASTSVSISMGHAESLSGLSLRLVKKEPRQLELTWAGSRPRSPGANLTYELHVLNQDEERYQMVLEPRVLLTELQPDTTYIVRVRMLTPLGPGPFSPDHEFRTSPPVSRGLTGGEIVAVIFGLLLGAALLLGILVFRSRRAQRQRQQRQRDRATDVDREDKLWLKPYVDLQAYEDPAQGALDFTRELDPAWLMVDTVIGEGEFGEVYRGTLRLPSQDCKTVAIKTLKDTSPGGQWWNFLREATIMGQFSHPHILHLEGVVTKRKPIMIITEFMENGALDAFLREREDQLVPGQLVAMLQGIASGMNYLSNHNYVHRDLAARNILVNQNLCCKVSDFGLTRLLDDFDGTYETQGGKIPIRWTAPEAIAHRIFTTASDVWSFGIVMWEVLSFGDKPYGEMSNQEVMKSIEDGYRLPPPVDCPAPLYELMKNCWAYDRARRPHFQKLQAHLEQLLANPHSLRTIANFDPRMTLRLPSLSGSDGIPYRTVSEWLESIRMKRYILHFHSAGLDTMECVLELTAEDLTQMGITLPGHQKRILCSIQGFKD
Measured Metric: IC50 (µM)
Unit µM implied. Number only.

**Query** Report IC50 for CN1C[C@@H]2C[C@H]1CN2c1cc(F)c(-c2ccnc3c(-c4cccc5[nH]ncc45)c(-c4ccncc4)nn23)c(F)c1 please.
**Result** 0.0953
